System: ACHN renal
method.notes: NCI tumour cell line growth inhibition, 48 h
Answer each item with its documented TGI.
Output spec: scalar in µM, unitless text.

Report TGI for `Nc1cc2ccncc2c2ccccc12` tested on ACHN renal.
58.5

Notebook: pull reported TGI for ACHN renal, entry `Fc1ccc(-c2ncn(C3CCNCC3)c2-c2ccnc(Oc3ccc(Oc4ccccc4)cc3)n2)cc1`
7.19

Field: TGI (ACHN renal). Entry: `CO/C=C(/C(=O)OC)c1ccccc1[C@H]1C[C@@H]1c1ccccc1`
60.6

What TGI appears in the records for this compound with ACHN renal? COC(=O)C1=C(c2cc(OC)c(OC)c(OC)c2)OC(c2cc(OC)c(OC)c(OC)c2)C1 (configuration not stated)
65.4

API: value(readout=TGI, system=ACHN renal) for record CC1CN=C(N(C(=O)Nc2ccccc2)C2CCCCC2)S1 (configuration not stated)
26.3

---

Tested on: SF-268 CNS
method.notes: NCI tumour cell line growth inhibition, 48 h; in the data active = GI50 below about 0.43 µM; inactive = the rest
A correct response names exactly one class from active, inactive

So what was the verdict on COc1ccc(C(=O)C(CN(C)C)c2ccccc2)cc1 (stereo not drawn) in this test?
inactive

Answer briefly: the call reported for `COc1ccc2c(c1)/C(=N/OC(C)=O)c1c-2c(Nc2ccc(/C(C)=N/OC(C)=O)cc2)nc2ccccc12` in this assay.
inactive

Test call, this compound: `CCCCCCCC(=O)O[C@H]1[C@H]2[C@@H](CC1(C)C)C(=O)[C@]13O[C@H]1C(=O)[C@]1(CO1)[C@]23C`
inactive

Identify the outcome logged in this assay for the compound shown: S=C1NC2=C(CCOc3c2ccc2ccccc32)C(c2ccc(Cl)cc2)N1 (stereo not drawn)
inactive

Identify the outcome logged in this assay for the compound shown: `COc1ccc(OC)c(/C=C/C(=O)c2ccc(SC)cc2)c1`
inactive

# fetch the recorded call for `COC(=O)[C@@H](C)C[C@H](Cc1ccccc1)NC(=O)c1csc([C@@H](C[C@H](C(C)C)N(C)C(=O)[C@@H](NC(=O)CN(C)C)C2CC2)OC(C)=O)n1` here
active

Which outcome was entered for the compound `CO[C@H]1/C=C/C=C/C=C/C[C@H](OC(=O)[C@@H](C)NC(=O)C2CCCCC2)[C@H](C)[C@@H](O)/C(C)=C\CCC2=CC(=O)C=C(NC(=O)C1)C2=O` in this test?
active

Give the logged outcome of this assay for the following compound: `O=C(N/N=C\c1cc(Br)cc(Br)c1O)N/N=C/c1cc(Br)cc(Br)c1O`
inactive

---

Test system: MALME-3M melanoma
method.notes: NCI tumour cell line growth inhibition, 48 h
Output Fulfilled for TGI not less than 40 µM; output Not fulfilled otherwise.

Reported TGI reaches at least 40 µM for CCCCOc1nc2ccccc2cc1C1CNC(=O)c2ccccc2N1 (centres undefined) ?
Not fulfilled

State whether the measured TGI reaches 40 µM, counting equality as reaching it, for `C[S+](C)C1(c2ccccc2)C(=O)c2ccccc2C1=O`
Fulfilled

Is the recorded value of TGI equal to or greater than 40 µM for this compound? `CCOC(=O)CCN1C(=O)c2c(NC(=O)C(=O)O)cccc2S1(=O)=O`
Fulfilled

Entry CC1CCCc2c(CC3CC(=O)NC(=O)C3)nc(N)nc21 (centres undefined) : is its TGI no less than 40 µM?
Fulfilled

Entry `C[C@@H]1CC[C@H]2C(CN(C)CC3=C(C(F)(F)F)O[C@@H]4O[C@@]5(C)CC[C@H]6[C@H](C)CC[C@@H]3[C@@]46OO5)=C(C(F)(F)F)O[C@@H]3O[C@@]4(C)CC[C@@H]1[C@]32OO4` : is its TGI no less than 40 µM?
Fulfilled

Does the compound `CC(=O)O[C@H]1Cc2c([nH]c3ccccc23)[C@@H](c2ccc(Cl)cc2)N1C(=O)CCNC(C)(C)C` have recorded TGI that is 40 µM or more?
Not fulfilled

Would you say `CN(C)CC(C)(C)C(=O)/C=C/c1ccccc1` shows TGI at minimum 40 µM?
Not fulfilled

In plain terms: is recorded TGI at least 40 µM for O=C(c1nc2ccccc2[nH]1)C1C(c2cccc([N+](=O)[O-])c2)C2CC3CCCCC3N2[C@@]12C(=O)Nc1cc(Cl)ccc12 (some centres undefined) ?
Not fulfilled

Confirm if TGI reported for the compound COC1OC2COC(c3ccccc3)OC2C(OC(=S)c2ccccc2)C1O (centres undefined) is 40 µM or above.
Fulfilled

Could you tell me if the measured TGI of CC(=O)OCC12C(OC(C)=O)C[C@@H](C)C3(CC(c4ccoc4)OC3=O)C1CCC(OC(C)=O)C21CO1 (some centres undefined) reaches 40 µM or more?
Fulfilled

Test whether the compound `Cc1cc(C)c(N)c(CO)c1` records TGI of 40 µM or higher.
Fulfilled

Assess whether reported TGI for `Cc1cncc2cccc(S(=O)(=O)N3CCCNC[C@@H]3C)c12` sits at 40 µM or higher.
Fulfilled

Hello, I need to know if `O=C(O)c1ccccc1/C=C1/Nc2ccccc2C1=O` has measured TGI not below 40 µM. Thanks!
Fulfilled

Reported TGI reaches at least 40 µM for `CC(C)S(=O)(=O)ON1C(=O)c2ccc([N+](=O)[O-])cc2C1=O` ?
Fulfilled

Check if TGI >= 40 µM (inclusive). Item: CCOC(=O)CCC1(C(=O)O[C@@H]2C[C@H](C)CC[C@H]2C(C)C)CCCCC1=O (some centres undefined)
Fulfilled

Does the reported TGI for `CCc1cc2c(c3[nH]ccc13)[C@@H](C)C[C@H]2C` fall at or above the 40 µM mark?
Not fulfilled

Is TGI at least 40 µM? Consider `Cc1cnc2cc(Cl)ccc2c1SCC(=O)O`
Fulfilled

State whether the measured TGI reaches 40 µM, counting equality as reaching it, for CCCCCC(=O)OCC1(CO)C/C(=C/CC(C(C)C)C(C)C)C(=O)O1 (centres undefined)
Fulfilled

Say whether `Cc1nc2ccccc2nc1N1CCCC1` shows TGI of 40 µM or more.
Fulfilled

Tell me whether TGI is at least 40 µM here: `O=C1c2ccccc2-c2c1c1ccccc1c(=O)n2CCCNCCO`
Not fulfilled

Decide: is the reported value of TGI for `C/C(=N/NC(=O)c1ccccc1Nc1ccccc1C(=O)N/N=C(\C)c1ccc(C)cc1)c1ccc(C)cc1` equal to or greater than 40 µM?
Fulfilled

Answer whether TGI of Nc1nc(Cl)cc(NCC2CC(O)(CO)C2)n1 (centres undefined) is greater than or equal to 40 µM.
Fulfilled

TGI >= 40 µM for CC(C)N(C(=O)C12C3C4C5C3C1(C(=O)N(C(C)C)C(C)C)C5C42)C(C)C (centres undefined) ?
Fulfilled

Hi, just wondering whether `Nc1nn2cc(-c3ccccc3)[n+](CC(=O)c3ccccc3)c2s1` shows TGI of 40 µM or higher.
Not fulfilled

Tell me whether TGI is at least 40 µM here: CC1CC/C(=C\c2ccc(F)cc2)C2=C1C(c1ccc(F)cc1)NC(=S)N2 (centres undefined)
Fulfilled

Check this compound for TGI at or above 40 µM: CC1CN=C(N(C(=O)Nc2ccccc2)C2CCCCC2)S1 (centres undefined)
Not fulfilled

Would you say `CCOC(=O)c1sc2[n+](c1C)C(=O)/C(=C/c1ccccc1Cl)S2` shows TGI at minimum 40 µM?
Not fulfilled

Is TGI for `Cc1cnc2[nH]c(-c3sccc3C)cc(=O)c2c1` at or above 40 µM?
Fulfilled

Please check the record `O=[N+]([O-])C1(CO)COC2(OC1)c1ccccc1-c1ccccc12` and state if its TGI is at or above 40 µM.
Fulfilled

Quick check, TGI >= 40 µM? CCC1C(=O)OCc2c1cc1n(c2=O)Cc2ccccc2-1 (centres undefined)
Fulfilled

TGI >= 40 µM for `CC(=O)O[C@H]1CC[C@]2(C=O)[C@H]3CC[C@]4(C)[C@@H](C5=CC(=O)OC5)CC[C@]4(O)[C@@H]3CC[C@]2(O)C1` ?
Not fulfilled

// inclusive: TGI at least 40 µM? input: `BrCC[N+]12CCCN1CCC2`
Not fulfilled

API: above_or_equal(metric=TGI, cutoff=40 µM) for item `O=c1cc(-c2ccccc2)[nH]c2c(F)ccc(F)c12`
Fulfilled

Can `CCOC(=O)/C=C/C(Br)=C(Br)/C=C/C(=O)OCC` be said to have TGI at or above 40 µM?
Not fulfilled

Hi team, for `Fc1ccc(-c2ncn(C3CCNCC3)c2-c2ccnc(Oc3ccc(Oc4ccccc4)cc3)n2)cc1` , is the recorded TGI at or above 40 µM?
Not fulfilled

In plain terms: is recorded TGI at least 40 µM for C=C(C)[C@@H]1CC[C@@H]2C(=CC[C@]3(C)C([C@H](C)CC/C=C(/C)C(=O)O)CC[C@@]23C)[C@@]1(C)CCC(=O)O (some centres undefined) ?
Fulfilled

Is TGI at least 40 µM? Consider CCOC(=O)CCC(NC(=O)c1ccc(Nc2nc3cc(N)cc(N)c3nc2-c2ccccc2)cc1)C(=O)OCC (centres undefined)
Not fulfilled
